target: T1, Mouse PCSK9 (mouse, UniProt Q80W65 35-694, limits assumed); test: Biacore (SPR), IgG2 captured, PCSK9 as analyte
T1 construct: Column head prints 'Mouse 9'; also called Mouse 9; mPCSK9
T1 sequence (Q80W65 35-694 limits assumed): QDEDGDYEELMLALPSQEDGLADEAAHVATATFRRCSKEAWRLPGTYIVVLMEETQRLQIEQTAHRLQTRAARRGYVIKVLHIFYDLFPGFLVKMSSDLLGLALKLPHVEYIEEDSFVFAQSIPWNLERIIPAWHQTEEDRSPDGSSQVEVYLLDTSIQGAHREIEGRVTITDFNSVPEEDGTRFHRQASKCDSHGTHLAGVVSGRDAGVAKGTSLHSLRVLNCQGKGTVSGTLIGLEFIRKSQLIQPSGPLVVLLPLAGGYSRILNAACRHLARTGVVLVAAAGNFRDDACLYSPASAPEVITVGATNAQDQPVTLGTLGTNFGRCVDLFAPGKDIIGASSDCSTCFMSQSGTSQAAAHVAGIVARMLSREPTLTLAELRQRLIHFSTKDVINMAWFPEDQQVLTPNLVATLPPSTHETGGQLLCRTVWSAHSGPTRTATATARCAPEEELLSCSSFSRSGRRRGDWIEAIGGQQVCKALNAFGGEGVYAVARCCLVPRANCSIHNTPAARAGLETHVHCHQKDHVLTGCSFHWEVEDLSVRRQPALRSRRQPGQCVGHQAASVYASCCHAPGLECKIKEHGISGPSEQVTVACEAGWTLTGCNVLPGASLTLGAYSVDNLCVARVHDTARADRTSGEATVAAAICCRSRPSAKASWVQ
measurement type: Kd (nM)
Write the value in nM as a bare number.

Sample records with Kd:
binder	reported value
AX210 IgG2 (antibody, V domains shown) VH: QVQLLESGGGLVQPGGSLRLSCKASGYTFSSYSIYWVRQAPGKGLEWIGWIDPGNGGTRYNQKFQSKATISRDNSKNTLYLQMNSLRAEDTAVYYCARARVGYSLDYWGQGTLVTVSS VL: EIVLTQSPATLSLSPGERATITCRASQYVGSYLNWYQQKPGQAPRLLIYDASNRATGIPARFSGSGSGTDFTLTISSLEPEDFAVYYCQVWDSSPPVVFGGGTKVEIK	3.6
AX114 IgG2 (antibody, V domains shown) VH: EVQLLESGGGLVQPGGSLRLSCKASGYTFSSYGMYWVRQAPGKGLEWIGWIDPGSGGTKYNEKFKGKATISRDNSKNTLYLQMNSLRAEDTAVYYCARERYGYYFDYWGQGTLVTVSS VL: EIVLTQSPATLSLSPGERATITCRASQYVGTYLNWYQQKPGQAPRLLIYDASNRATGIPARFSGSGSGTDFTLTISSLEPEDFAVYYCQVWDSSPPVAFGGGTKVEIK	11.2
AX213 IgG2 (antibody, V domains shown) VH: EVQLLESGGGLVQPGGSLRLSCKASGYTFSRYGINWVRQAPGKGLEWIGRIDPGNGGTRYNEKFKGKATISRDNSKNTLYLQMNSLRAEDTAVYYCARANDGYSFDYWGQGTLVTVSS VL: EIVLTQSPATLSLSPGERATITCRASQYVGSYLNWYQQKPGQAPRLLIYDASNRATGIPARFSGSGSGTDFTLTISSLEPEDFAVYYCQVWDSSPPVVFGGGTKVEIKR	3.25
AX212 IgG2 (antibody, V domains shown) VH: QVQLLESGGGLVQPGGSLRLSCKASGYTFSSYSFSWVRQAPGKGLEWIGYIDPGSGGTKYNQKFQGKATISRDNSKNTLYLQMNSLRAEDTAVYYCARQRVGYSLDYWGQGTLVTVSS VL: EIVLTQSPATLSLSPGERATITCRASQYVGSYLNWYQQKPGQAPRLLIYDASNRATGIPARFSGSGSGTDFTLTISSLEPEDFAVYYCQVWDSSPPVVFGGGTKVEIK	2.74

Okay, now this binder:
Please look at this binder and report its Kd: AX211 IgG2 (antibody, V domains shown) VH: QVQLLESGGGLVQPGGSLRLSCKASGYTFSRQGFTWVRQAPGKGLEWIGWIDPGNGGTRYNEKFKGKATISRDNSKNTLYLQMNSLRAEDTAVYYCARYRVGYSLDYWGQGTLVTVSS VL: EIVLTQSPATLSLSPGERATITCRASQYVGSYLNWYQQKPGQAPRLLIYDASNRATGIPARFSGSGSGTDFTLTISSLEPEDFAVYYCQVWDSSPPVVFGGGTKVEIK 1.66
